Assay: Solubility of fluticasone propionate in FDA-approved solvents and excipients (RP-HPLC at 239 nm)
Assay type: physicochemical
Conditions: PEG 200, 25 °C, organic solvent or mixture, thermodynamic from solid, in PEG 200; overnight at 25 degrees centigrade; read-out: Solubility
Description: The specific composition of Phase I depends upon the solubility of the drug in this phase. […] The suspension was centrifuged at 10,000 rpm and the supernatant analyzed by RP-HPLC at 239 nm.
measured.parameter: solubility (µg/mL)
Write the value in µg/mL as a bare number.

Measured solubility, CCC(=O)O[C@]1(C(=O)SCF)[C@H](C)C[C@H]2[C@@H]3C[C@H](F)C4=CC(=O)C=C[C@]4(C)[C@@]3(F)[C@@H](O)C[C@@]21C [fluticasone propionate] : 4210

* * *

test: Solubility of fluticasone propionate in FDA-approved solvents and excipients (RP-HPLC at 239 nm); type: physicochemical; details: Polysorbate 80, 25 °C, aqueous with cosolvent or surfactant or cyclodextrin, thermodynamic from solid, in Polysorbate 80; overnight at 25 degrees centigrade; read-out: Solubility
measured.parameter: solubility (µg/mL)
Numbers only here, please. The scale is µg/mL.

Per the record, CCC(=O)O[C@]1(C(=O)SCF)[C@H](C)C[C@H]2[C@@H]3C[C@H](F)C4=CC(=O)C=C[C@]4(C)[C@@]3(F)[C@@H](O)C[C@@]21C [fluticasone propionate] has solubility of 4660

* * *

assay: Solubility of fluticasone propionate in FDA-approved solvents and excipients (RP-HPLC at 239 nm); assay type: physicochemical; details: Span 80, 25 °C, aqueous with cosolvent or surfactant or cyclodextrin, thermodynamic from solid, in Span 80; overnight at 25 degrees centigrade; read-out: Solubility
measured.parameter: solubility (µg/mL)
The response must be a number in µg/mL with no trailing unit.

Reported solubility ( CCC(=O)O[C@]1(C(=O)SCF)[C@H](C)C[C@H]2[C@@H]3C[C@H](F)C4=CC(=O)C=C[C@]4(C)[C@@]3(F)[C@@H](O)C[C@@]21C [fluticasone propionate] ) = 52.1

* * *

assay: Solubility of triamcinolone acetonide in non-aqueous solvents; type: physicochemical; details: organic solvent or mixture, thermodynamic from solid; in TWEEN 80 (polysorbate 80); 37° C.; preliminary estimation
measured.parameter: solubility at 15 min (µg/mL)
The answer is to be given in µg/mL; state only the numeric part.

Just so you know, measured solubility at 15 min for CC1(C)O[C@@H]2C[C@H]3[C@@H]4CCC5=CC(=O)C=C[C@]5(C)[C@@]4(F)[C@@H](O)C[C@]3(C)[C@]2(C(=O)CO)O1 [triamcinolone acetonide] came out at 4000

* * *

assay: Solubility of triamcinolone acetonide in non-aqueous solvents; format: physicochemical; settings: organic solvent or mixture, thermodynamic from solid; in TWEEN 20 (polysorbate 20); 37° C.; preliminary estimation
measured.parameter: solubility at 15 min (µg/mL)
Unit µg/mL implied. Number only.

Entry CC1(C)O[C@@H]2C[C@H]3[C@@H]4CCC5=CC(=O)C=C[C@]5(C)[C@@]4(F)[C@@H](O)C[C@]3(C)[C@]2(C(=O)CO)O1 [triamcinolone acetonide] , solubility at 15 min reported as 5500

* * *

test: Solubility of fluticasone propionate in FDA-approved solvents and excipients (RP-HPLC at 239 nm); type: physicochemical; settings: Glycerin, 25 °C, organic solvent or mixture, thermodynamic from solid, in Glycerin; overnight at 25 degrees centigrade; read-out: Solubility
measured.parameter: solubility (µg/mL)
Answer format: numeric, µg/mL implied, no suffix.

CCC(=O)O[C@]1(C(=O)SCF)[C@H](C)C[C@H]2[C@@H]3C[C@H](F)C4=CC(=O)C=C[C@]4(C)[C@@]3(F)[C@@H](O)C[C@@]21C [fluticasone propionate] yielded solubility of 144

Attribution: patent US9815865B2
